Cited source: patent US10160771B2

experiment: Cell Titer-fluor cell activity assay in HCV-1b replicon cells (CC50); assay type: cell-based
Consider the following molecules; for each one, report its CC50 at 3 days.

Batch: CC50 at 3 days for all items listed.
1. COC(=O)NN(C(=O)[C@@H]1CCCCC1c1ncc(-c2ccc3cc(-c4ccc(-c5cnc(C6CCCC[C@@H]6C(=O)N(CC(=O)NC6CC6)C(C)C)[nH]5)cc4)ccc3c2)[nH]1)C(C)C (some centres unmarked) [AA_075]
2. COC(=O)N[C@H](C(=O)N1[C@H](c2ncc(-c3ccc(-c4ccc5cc(-c6cnc(C7CCCC[C@H]7C(=O)N(NC(=O)OC)C(C)C)[nH]6)ccc5c4)cc3)[nH]2)COC1(C)C)C(C)C (some centres unmarked) [AA_072]
3. CNC(=O)[C@@H](NC(=O)[C@@H]1[C@@H]2CC[C@@H](C2)[C@H]1c1ncc(-c2ccc(-c3ccc(-c4cnc([C@@H]5CCCN5C(=O)[C@@H](NC(=O)OC)C(C)C)[nH]4)cc3)cc2)[nH]1)C(C)C [AA_298_ENDOA2]
4. COC(=O)N[C@H](C(=O)N1CCCC1c1ncc(-c2ccc3cc(-c4ccc(-c5[nH]c(C6CCCN6C(=O)[C@@H](NC(=O)OC)C(C)C)c6c5CCC6)cc4)ccc3c2)[nH]1)C(C)C (some centres unmarked) [AG_048]

["> 10 nM", "> 10 nM", "> 1 nM", "> 100 nM"]

// sample COC(=O)N[C@H](C(=O)N1CCC[C@H]1c1ncc(-c2ccc(-c3ccc(-c4cnc(C5C6CCC(C6)[C@H]5C(=O)NCc5ccc(OC)nc5)[nH]4)cc3)cc2)[nH]1)[C@@H](C)OC (some centres unmarked) [AA_223_A] , its CC50 at 3 days was > 1 nM

----------
assay: Cell Titer-fluor cell activity assay in HCV-1b replicon cells (CC50); type: cell-based
quantityName: CC50 at 3 days

[
  {
    "compound": "COC(=O)N[C@H](C(=O)N1CCC[C@H]1c1ncc(-c2ccc(-c3ccc(-c4[nH]c([C@@H]5CCCN5C(=O)[C@@H](NC(=O)OC)C(C)C)c5c4CCCC5)cc3)cc2)[nH]1)C(C)C [AG_015_A]",
    "CC50 at 3 days": "> 1 nM"
  },
  {
    "compound": "COC(=O)N[C@@H](CO)C(=O)N1CCC[C@H]1c1ncc(-c2ccc(-c3ccc(-c4ccc([C@@H]5CCCN5C(=O)[C@@H](NC(=O)OC)C(C)OC)[nH]4)cc3)cc2)[nH]1 (stereo partly shown) [AG_119]",
    "CC50 at 3 days": "> 1 nM"
  },
  {
    "compound": "COC(=O)N[C@H](C(=O)N1CCCC1c1ccc(-c2ccc(-c3ccc(-c4cnc([C@@H]5CCCN5C(=O)[C@@H](NC(=O)OC)C5CCOC(C)C5)[nH]4)cc3)cc2)[nH]1)C(C)C (stereo partly shown) [AG_053]",
    "CC50 at 3 days": "> 100 nM"
  },
  {
    "compound": "COC(=O)N[C@H](C(=O)N1CCC[C@H]1c1ncc(-c2ccc(-c3ccc(-c4cnc(C5C6CCC(C6)[C@@H]5C(=O)NCc5cccnc5OC)[nH]4)cc3)cc2)[nH]1)[C@@H](C)OC (stereo partly shown) [AA_257_A]",
    "CC50 at 3 days": "> 1 nM"
  },
  {
    "compound": "COC(=O)N[C@H](C(=O)N1CCC[C@H]1c1ncc(-c2ccc(-c3ccc(-c4cnc(C5C6CCC(C6)[C@H]5C(=O)N[C@H](C)c5cccnc5)[nH]4)cc3)cc2)[nH]1)[C@@H](C)OC (stereo partly shown) [AA_253_B]",
    "CC50 at 3 days": "> 1 nM"
  }
]

Batch: CC50 at 3 days for all items listed.
1. COC(=O)N[C@H](C(=O)N1CCC[C@H]1c1ncc(-c2ccc(-c3ccc(-c4cnc([C@@H]5[C@H]6CC[C@H](C6)[C@H]5C(=O)NCc5cncnc5)[nH]4)cc3)cc2)[nH]1)C(C)C [AA_201_ENDOA2]
2. COC(=O)N[C@H](C(=O)N1CCC[C@H]1c1ncc(-c2ccc(-c3ccc(-c4cnc(C5C6CCC(C6)[C@@H]5C(=O)NCc5cncnc5)[nH]4)cc3)cc2)[nH]1)[C@@H](C)OC (stereo partly shown) [AA_249_A]
3. COC(=O)NC(C(=O)N1CCCC1c1[nH]c(-c2ccc(-c3ccc(-c4cnc([C@@H]5CCCN5C(=O)C(NC(=O)OC)C5CCOCC5)[nH]4)cc3)cc2)c2c1CCC2)C1CCOCC1 (stereo partly shown) [AG_042]
4. COC(=O)NC(C(=O)N1CCCC1c1ncc(-c2ccc3cc(-c4cnc(C5CCCC[C@H]5C(=O)N(NC(=O)OC)C(C)C)[nH]4)ccc3c2)[nH]1)C1CCOC1 (stereo partly shown) [AA_078]
5. COC(=O)N[C@H](C(=O)N1CCC[C@H]1c1ncc(-c2ccc(-c3ccc(-c4cnc([C@H]5C6CCC(C6)[C@@H]5C(=O)NC(c5cccnc5)C(C)C)[nH]4)cc3)cc2)[nH]1)C(C)C (single isomer, unassigned) [AA_233_A]

["> 1 nM", "> 1 nM", "> 100 nM", "> 10 nM", "> 1 nM"]

----------
assay: in vitro; type: cell-based; conditions: HCV 1a replicon cells, 3 days, Cell Titer-fluor
Consider the following molecules; for each one, report its CC50.

Example entries and their recorded answers appear below.
[
  {
    "molecule": "COC(=O)N[C@H](C(=O)N1CCC[C@H]1c1ncc(-c2ccc(-c3ccc(-c4ccc(C5CCCN5C(=O)[C@@H](NC(=O)OC)C(C)C)[nH]4)cc3)cc2)[nH]1)c1ccccc1 (stereo partly drawn)",
    "CC50": "> 100 nM"
  },
  {
    "molecule": "COC(=O)N[C@H](C(=O)N1CCC[C@H]1c1[nH]c(-c2ccc(-c3ccc(-c4cnc([C@@H]5CCCCN5C(=O)[C@@H](NC(=O)OC)[C@@H](C)OC)[nH]4)cc3)cc2)c2c1COC2)C(C)OC (stereo partly drawn)",
    "CC50": "> 100 nM"
  }
]

Turning now to a further record.
// sample COC(=O)NC(C(=O)N1CCCC1c1[nH]c(-c2ccc(-c3ccc(-c4cnc([C@@H]5CCCN5C(=O)[C@@H](NC(=O)OC)C(C)C)[nH]4)cc3)cc2)c2c1CCCC2)C1CCOCC1 (stereo partly drawn) , its CC50 was > 100 nM

----------
assay: Cell Titer-fluor cell activity assay in HCV-1b replicon cells (CC50); type: cell-based
quantityName: CC50 at 3 days

Example entries and their recorded answers appear below.
[
  {
    "compound": "COC(=O)N[C@H](C(=O)N1CCCC1c1cc(Cl)c(-c2ccc(-c3ccc(-c4cnc([C@@H]5CCCN5C(=O)[C@@H](NC(=O)OC)C(C)C)[nH]4)cc3)cc2)[nH]1)C(C)C (stereo partly drawn)",
    "CC50 at 3 days": "> 1 nM"
  },
  {
    "compound": "COC(=O)N[C@H](C(=O)N1CCC[C@H]1c1ncc(-c2ccc(-c3ccc(-c4[nH]c([C@@H]5CCCN5C(=O)[C@@H](NC(=O)OC)[C@@H](C)OC)c5c4CCCC5)cc3)cc2)[nH]1)C(C)C",
    "CC50 at 3 days": "> 5 nM"
  }
]

Turning now to a further record.
// sample COC(=O)N[C@H](C(=O)N1CCC[C@H]1c1ncc(-c2ccc(-c3ccc(-c4cnc([C@@H]5[C@H]6CC[C@H](C6)[C@H]5C(=O)NC5(c6ccccc6)CC5)[nH]4)cc3)cc2)[nH]1)C(C)C [AA_273_ENDOA2] , its CC50 at 3 days was > 1 nM

----------
Consider the following molecules; for each one, report its CC50 at 3 days.
test: Cell Titer-fluor cell activity assay in HCV-1b replicon cells (CC50); assay type: cell-based

[
  {
    "molecule": "COC(=O)N[C@H](C(=O)N1CCC[C@H]1c1ncc(-c2ccc(-c3ccc(-c4cnc([C@@H]5C6CCC(C6)[C@H]5C(=O)NC(c5cccnc5)C(C)C)[nH]4)cc3)cc2)[nH]1)C(C)C (stereo partly shown)",
    "quantityName": "CC50 at 3 days",
    "testResult": "> 1 nM"
  }
]

Batch: CC50 at 3 days for all items listed.
1. COC(=O)N[C@H](C(=O)N1CCC[C@H]1c1ncc(-c2ccc(-c3ccc(-c4cnc(C5C6CCC(C6)[C@H]5C(=O)N(NC(=O)OC)C(C)C)[nH]4)cc3)cc2)[nH]1)C(C)C (stereo partly shown)
2. COC(=O)N[C@H](C(=O)N1CCC[C@H]1c1ncc(-c2ccc(-c3ccc(-c4cnc(C5C6CCC(C6)[C@@H]5C(=O)NCCc5ccncc5)[nH]4)cc3)cc2)[nH]1)[C@@H](C)OC (stereo partly shown)
3. COC(=O)N[C@H](C(=O)N1CCC[C@@H]1c1[nH]c(-c2ccc(-c3ccc(-c4cnc([C@@H]5CCCN5C(=O)[C@@H](NC(=O)OC)[C@@H](C)OC)[nH]4)cc3)cc2)c2c1COC2)C(C)OC (stereo partly shown)
4. COC(=O)NC(C(=O)N1CCC[C@H]1c1ncc(-c2ccc(-c3ccc(-c4[nH]c(C5CCCN5C(=O)[C@@H](NC(=O)OC)C(C)C)c5c4CCCC5)cc3)cc2)[nH]1)C1CCOC1 (stereo partly shown)
5. COC(=O)N[C@H](C(=O)N1CCC[C@H]1c1ncc(-c2ccc(-c3ccc(-c4cnc(C5CCCC[C@H]5C(=O)N(NC(=O)OC)C(C)C)[nH]4)cn3)cc2)[nH]1)C(C)C (stereo partly shown)
6. COC(=O)N[C@H](C(=O)N1CCC[C@H]1c1[nH]c(-c2ccc(-c3ccc(-c4cnc([C@@H]5CCCN5C(=O)[C@@H](NC(=O)OC)C5CC5)[nH]4)cc3)cc2)c2c1CCC2)C(C)C
7. COC(=O)N[C@H](C(=O)N1CCC[C@H]1c1ncc(-c2ccc(-c3ccc(-c4[nH]c([C@H]5CCCN5C(=O)[C@@H](NC(=O)OC)[C@@H](C)OC)c5c4CCCC5)cc3)cc2)[nH]1)C(C)C

> 10 nM
> 1 nM
> 5 nM
> 100 nM
> 10 nM
> 1 nM
> 5 nM

Batch: CC50 at 3 days for all items listed.
1. COC(=O)N[C@H](C(=O)N1CCC[C@H]1c1ncc(-c2ccc(-c3ccc(-c4cnc(C5C6CCC(C6)[C@H]5C(=O)N(NC(=O)OC)C(C)C)[nH]4)cc3)c(OC)c2)[nH]1)C(C)C (stereo partly shown)
2. COC(=O)NC(C(=O)N1CCC[C@H]1c1[nH]c(-c2ccc(-c3ccc(-c4cnc([C@@H]5CCCN5C(=O)[C@@H](NC(=O)OC)[C@@H](C)OC)[nH]4)cc3)cc2)c2c1CCC2)[C@@H](C)OC (stereo partly shown)
3. COC(=O)N[C@H](C(=O)N1CCC[C@H]1c1[nH]c(-c2ccc(-c3ccc(-c4cnc([C@@H]5CCCN5C(=O)[C@@H](NC(=O)OC)[C@@H](C)OC)[nH]4)cc3)cc2)c2c1CCCC2)C(C)C
4. COC(=O)N[C@H](C(=O)N1CCC[C@H]1c1ncc(-c2ccc(-c3ccc(-c4cnc(C5C6CCC(C6)[C@H]5C(=O)NCc5ccncc5)[nH]4)cc3)cc2)[nH]1)[C@@H](C)OC (stereo partly shown)

> 1 nM
> 1 nM
> 1 nM
> 1 nM

Batch: CC50 at 3 days for all items listed.
1. COC(=O)N[C@H](C(=O)N1CCC[C@H]1c1ncc(-c2ccc(-c3ccc(-c4cnc([C@H]5C6CCC(C6)[C@@H]5C(=O)NNc5nccnc5Cl)[nH]4)cc3)cc2)[nH]1)C(C)C (stereo partly shown)
2. COC(=O)N[C@H](C(=O)N1CCC[C@H]1c1ncc(-c2ccc(-c3ccc(-c4[nH]c([C@@H]5CCCN5C(=O)[C@@H](NC(=O)OC)[C@@H](C)OC)c5c4COC5)cc3)cc2)[nH]1)C(C)C
3. COC(=O)N[C@H](C(=O)N1CCC[C@H]1c1ncc(-c2ccc(-c3ccc(-c4cnc([C@H]5C6CCC(C6)[C@@H]5C(=O)NCc5ccc(N)cc5)[nH]4)cc3)cc2)[nH]1)[C@@H](C)OC (stereo partly shown)
4. COC(=O)N[C@H](C(=O)N1CCC[C@H]1c1ncc(-c2ccc(-c3ccc(-c4cnc([C@@H]5[C@H]6CC[C@H](C6)[C@H]5C(=O)N[C@@H](C)c5cnccn5)[nH]4)cc3)cc2)[nH]1)C(C)C [AA_270_ENDOA2_A]

> 1 nM
> 5 nM
> 1 nM
> 1 nM

Batch: CC50 at 3 days for all items listed.
1. COC(=O)N[C@H](C(=O)N1CCC[C@H]1c1ncc(-c2ccc(-c3ccc(-c4cnc(C5C6CCC(C6)[C@@H]5C(=O)NCc5cccnc5SC)[nH]4)cc3)cc2)[nH]1)[C@@H](C)OC (stereo partly shown)
2. COC(=O)NC(C(=O)N1CCC[C@H]1c1ncc(-c2ccc(-c3ccc(-c4[nH]c(C5CCCN5C(=O)[C@@H](NC(=O)OC)C(C)C)c5c4CCC5)cc3)cc2)[nH]1)C1CCOC1 (stereo partly shown)
3. COC(=O)N[C@H](C(=O)N1CCC[C@H]1c1ccc(-c2ccc(-c3ccc(-c4cnc([C@@H]5CCCCN5C(=O)[C@@H](NC(=O)OC)[C@@H](C)OC)[nH]4)cc3)cc2)[nH]1)[C@@H](C)OC

1. > 1 nM
2. > 100 nM
3. > 1 nM
